Reference for the values: PubChem BioAssay (NCI)

For each record, write down the corresponding GI50.
- Test system: HOP-92 NSCLC
- METHOD SUMMARY: NCI tumour cell line growth inhibition, 48 h

For reference, reported GI50 for CCCCCCCCCCCCSC1=C(Cl)C(=O)C(OC)=C(OC)C1=O stands at 2670 nM

GI50 reading for C=C1C(=O)O[C@H]2C[C@@H]1CC/C(C)=C/CC/C(C)=C/CC[C@@]2(C)O : 19500 nM

Query COc1cc(C(=O)N2CCN(c3ccccc3)CC2)c2ccccc2n1 yields GI50 of 1470 nM

Sure, the documented GI50 for C[C@@H](NC(=O)/C(C#N)=C/c1ccc([N+](=O)[O-])cc1)c1ccccc1 is 1890 nM

---

- System: BT-549 breast
- METHOD SUMMARY: NCI tumour cell line growth inhibition, 48 h
RECORDED METRIC: TGI

Consider COc1ccc(OC)c(C2CCc3c(cnc4nc(N)nc(N)c34)C2)c1 (stereo not drawn) . Its measured TGI is 40.7 µM

// TGI value for Cc1ccc(N=NC(=Nc2ccc(Cl)cc2)c2ccc(N(CCC#N)CCC#N)cc2)cc1 : > 100 µM

Per the records, this molecule ( COC(=O)C1=C(OC(=O)c2ccccc2)C(C(=O)OC)[C@@]2(O)[C@@H](C(=O)OC)[C@H](C)C[C@@H]1[C@@H]2C(=O)OC (stereo partly drawn) ) has TGI equal to 78.1 µM

// recorded TGI for C[C@@H]1CCC([C@@H](C)[C@H]2CC[C@H]3[C@@H]4CC[C@H]5C[C@@H](O)CC[C@]5(C)[C@H]4CC[C@]23C)=NC1 : > 85 µM

Please fill in: TGI reported for COC(=O)C1=CO[C@@H](OC2OC(CO)C(O)C(O)C2O)[C@H]2[C@@H](C)[C@@H](O)[C@@H](O)[C@@H]12 (stereo partly drawn) = > 100 µM

// field: TGI; key: N#Cc1c(N2CCOCC2)nc(=S)[nH]c1-c1ccccc1 ; value = > 100 µM

For COc1ccc2c(c1)oc(=O)c1cc(OC)ccc12 the molecule record lists TGI as > 100 µM

// TGI lookup, molecule = O=c1cc(CSc2c(-c3ccccc3)c(=O)n(-c3ccccc3)c(=S)n2-c2ccccc2)[nH]c(=O)[nH]1 , result: > 100 µM

---

Kindly supply the reported log10(TGI) values for the records listed here.
- System: 786-0 renal
- METHOD SUMMARY: NCI tumour cell line growth inhibition, 48 h
Record value = log10 of TGI given in µM.

In plain terms, CCOC(=O)Cn1c(=O)c2nc(SC)sc2n(-c2ccccc2)c1=S has a documented log10(TGI) of 1.49

log10(TGI) recorded for this compound, CN(C)CCCSc1nc2c(c(=N)n1-c1ccccc1)c(=S)n(-c1ccccc1)c(=S)n2-c1ccccc1 , is 0.42

Sure, the documented log10(TGI) for N#CC1=C(c2ccccc2)C(=C2Nc3ccccc3N2)C2S/C(=C\c3ccccc3)C(=O)N2C1=N (configuration not stated) is 0.78

response.value for C=C1C(=O)O[C@H]2[C@H]1CC/C(C=Nc1c(N)cc(C(F)(F)F)cc1C(F)(F)F)=C\CC[C@@]1(C)O[C@@H]21 (field: log10(TGI)) = 0.61

Entry N#C[Se]CCN1C(=O)C2C(C1=O)[C@H]1C=C[C@@H]2S1 (some centres not stated) , log10(TGI) reported as 0.57

Consider CC(C)(C)[Si](C)(C)OC1[C@@H](O[Si](C)(C)C(C)(C)C)[C@@H](CNC(=O)NC(=O)CF)O[C@H]1n1cnc2c(NC(=O)Nc3ccccc3)ncnc21 (some centres not stated) . Its measured log10(TGI) is 1.20

Just so you know, measured log10(TGI) for O=C1NC2C(=CC(O)C(O)C2O)c2cc3c(cc21)OCO3 (configuration not stated) came out at 0.69

Recorded result, CCSc1cc2c(cc1O)CC[C@@H]1[C@@H]2CC[C@]2(C)[C@@H](O)CC[C@@H]12 , log10(TGI): 1.39

The compound CCCCCCCCCCCC(=O)N1CCN(C(C)=O)CC1 showed log10(TGI) equal to 1.49

# log10(TGI) of Nc1ccc(Oc2ccc(C3(c4ccc(Oc5ccc(N)cc5)cc4)C4CC5CC(C4)CC3C5)cc2)cc1 = 1.28

---

For each of the compounds below, state its TGI.
- Tested on: NCI-H522 lung
- METHOD SUMMARY: NCI tumour cell line growth inhibition, 48 h
Your answer is read as µM, so omit the unit and give the number.

Lab note: measured TGI of COc1cc(C(=O)N2CCN(c3ccccc3)CC2)c2ccccc2n1 was 0.475

Given item O=[N+]([O-])c1ccc(Oc2c(Cl)cc(S(=O)(=O)/N=C(\NO)Nc3ccc(Cl)cc3)cc2Cl)c(Cl)c1 , the value recorded as its TGI is 26.4

For this compound ( Cc1cc(C)c(O)c(CN2CCN(C(C)C)CCN(C(C)C)CC2)c1 ), measured TGI is 68

The reported TGI of the compound N#Cc1cc([N+](=O)[O-])ccc1NC(=O)/C(=N\NC(=O)c1ccncc1)C(c1cnc2ccc([N+](=O)[O-])cc2n1)[N+](=O)[O-] (centres undefined) was 3.46

Entry COc1ccc2c(O)c(/C=C3\N=Nc4ccccc43)oc2c1C[C@@H]1CCNC[C@H]1F — recorded TGI = 3.94

Item: N#CC1=C(c2ccccc2)C(=C2Nc3ccccc3N2)C2S/C(=C\c3ccccc3)C(=O)N2C1=N (centres undefined) | TGI: 3.52

---

- Test system: HS 578T breast
- METHOD SUMMARY: NCI tumour cell line growth inhibition, 48 h
RECORDED METRIC: TGI (µM)
// return numeric value only (unit: µM, not printed)

// TGI lookup, molecule = C=C(C)[C@@]1(O)CCCC[C@@H]1CC(Sc1ccccc1)Sc1ccccc1 , result: 35.1

Form: molecule = CCCCCCCCCCCCSC1=C(Cl)C(=O)C(OC)=C(OC)C1=O ; TGI = 7.96

---

- System: ACHN renal
- METHOD SUMMARY: NCI tumour cell line growth inhibition, 48 h
RECORDED METRIC: TGI

Quick note, TGI for Nc1nc(N)c(-c2ccccc2)c(C(=O)Nc2ccccc2)n1 landed at > 100 µM

In plain terms, O=C1CC2(CCC3=C(O2)c2ccccc2NC(=O)C3)C(=O)c2ccccc2N1 (stereo unspecified) has a documented TGI of > 100 µM

Lab note: c1ccc(C(NC2=NCCO2)c2ccccc2)cc1 gave TGI of > 10 µM

Input CCCNCC(=O)O[C@]1(CC)C(=O)OCc2c1cc1n(c2=O)Cc2cc3ccccc3nc2-1 . Output TGI: 0.233 µM

Value of measured TGI for the entry COc1cc2c(cc1OCCCOS(C)(=O)=O)N=C[C@@H]1CCCN1C2=O : > 100 µM

The recorded TGI for CCOC(=O)NC/C=C/COC1CCCCO1 (stereo unspecified) is > 100 µM

---

- System: M14 melanoma
- METHOD SUMMARY: NCI tumour cell line growth inhibition, 48 h
For each record, write down the corresponding TGI.

Measured TGI of CCCCC(C(=O)CCC(=O)Nc1ccc(Cl)c(Cl)c1)C(=O)C(C)C (stereo unspecified) : > 100 µM

For CN1CCC2(CC1)NC(=O)c1c(c3ccc(Cl)c(Cl)c3n1C)C2C#N (stereo unspecified) the compound record lists TGI as 8.5 µM

Recorded result, Cc1cc(C)c(O)c(CN2CCN(C(C)C)CCN(C(C)C)CC2)c1 , TGI: 26.2 µM

TGI reading for C=C/C(C)=C\CC1[C@](C)(O)CC[C@H]2C(C)(C)C(O)CC[C@]12C (stereo partly specified) : > 100 µM

# TGI (compound: O=C(CCCN1CCC2(CC1)CC(=O)N(N1CCOCC1)C2=O)c1ccc(F)cc1 ) is > 100 µM

Record CCCNCC(=O)O[C@]1(CC)C(=O)OCc2c1cc1n(c2=O)Cc2cc3ccccc3nc2-1 , field TGI: 1.82 µM

Record O=C(O)C(C(=O)O)P(=S)(S)c1ccccc1 (stereo unspecified) . Reported TGI: > 100 µM

Recorded TGI (compound OCCCNc1ccnc2cc(Cl)ccc12 ): > 100 µM

Reported TGI of COc1ccc(Nc2cc(C)nc(NCc3ccccc3)n2)cc1 : 7.52 µM

Consider O=c1c2ccccc2nc(/C=C(\O)c2ccncc2)n1-c1ccc(Cl)cc1 . Its measured TGI is > 100 µM

# compound CCOC(=O)C1C(C)C2(C#N)C(=N)OC1(C)C2(C#N)C#N (stereo unspecified) ; its TGI = > 100 µM

---

Provide the recorded TGI for the entries that follow.
- Tested on: OVCAR-8 ovarian
- METHOD SUMMARY: NCI tumour cell line growth inhibition, 48 h
The figure you give is taken to be in µM; do not add the unit.

Form: compound = O=C(Nc1ccc(-n2cc(-c3ccncc3)c(-c3ccc(O)c(Cl)c3)n2)cc1)Nc1ccc(Cl)c(C(F)(F)F)c1 ; TGI = 21.3

Looking up COc1ccc(-c2cc(-c3ccc(O)cc3O)c(C#N)c(=O)[nH]2)cc1 , I found its TGI recorded as 85.2
